// data source = the NIST ThermoML archive (doi:10.1016/j.fluid.2014.01.019)

measurement_conditions: 303.15 K; 101 kPa; Liquid; Frequency=2 MHz; Linear variable-path acoustic interferometer
Recorded speed of sound values for a group of compounds are listed next.
measured_endpoint: speed of sound (m/s)

chemical_string=Cc1cccc([N+](=O)[O-])c1 value_reported=1442
chemical_string=Cc1cccc(Cl)c1 value_reported=1281
chemical_string=Cc1ccccc1[N+](=O)[O-] value_reported=1439
chemical_string=Cc1ccccc1Cl value_reported=1285
chemical_string=OCc1ccccc1 value_reported=1514
chemical_string=Cc1ccc(Cl)cc1 value_reported=1274

---

measurement_conditions: 303.15 K; 101.33 kPa; Liquid; Vibrating tube method
Recorded mass density values for a group of compounds are listed next.
measured_endpoint: mass density (kg/m3)

compound="Cc1ccc(Cl)cc1 [4-chlorotoluene]" value_reported=1059.56
compound="Cc1cccc([N+](=O)[O-])c1 [3-nitrotoluene]" value_reported=1147.67
compound="Cc1cccc(Cl)c1 [3-chlorotoluene]" value_reported=1062.79
compound="Cc1ccccc1[N+](=O)[O-] [2-nitrotoluene]" value_reported=1153.29
compound="OCc1ccccc1 [benzenemethanol]" value_reported=1037.67
compound="Cc1ccccc1Cl [2-chlorotoluene]" value_reported=1072.86
